- System: UO-31 renal
- test.description: NCI-60 one-dose screen, 48 h (100 = growth as untreated, 0 = no growth, -100 = all killed)
- assay.context: 10 µM unless noted
The panel holds about 83,000 compounds, 20% with a hit somewhere; the sample as a whole holds those more often.
So I've got a bunch of compounds here, and I need their growth values.
One number for each entry, in %.

Report growth for every entry below.
1. CCOC(=O)c1c(Cl)c2c(n1Cc1ccccc1)-c1oncc1CCC2
2. Cc1ccc(C)c(-c2csc(Nc3ccc(C)c(C)c3)n2)c1

**A:**
1: 72.4; 2: 40.3

---

- System: SN12C renal
- test.description: NCI-60 one-dose screen, 48 h
- assay.context: 10 µM unless noted
This is part of a sample that, as a whole, favours compounds with a hit. Of some 83,000 tested, about 20% had one in any assay. Active and inactive are the calls of the source. How the source made its calls: active means growth percent below 10; inactive means the rest.
Respond with a class label; see Y (active), N (inactive)

compound=Nc1ccc(-c2ccc(-c3ccccc3N)c3[nH]c4ccccc4c23)cc1 category_label=N
compound=COc1cccc2c(=O)c3c(sc12)c(NCCCNCCO)nc1ccccc13 category_label=N
compound="O=c1[nH]nnc2c1ncn2C1OC(CO)C(O)C1O (stereo unspecified)" category_label=N
compound="COC(=O)C1(C)COP(=O)(Nc2ccc(OC)cc2)OC1 (stereo unspecified)" category_label=N
compound=O=C(Nc1ccc(Cl)cc1)c1cc2ccccc2cc1OP(=O)(O)O category_label=N

Please examine the following record next.
**Q:** What classification did CN(C)CCNc1cc(-c2ccccc2)nc2ccccc12 end up with in this test?
**A:** Y
